Target: mB^0AT1 (mouse SLC6A19) co-expressed with mouse Collectrin (Mus musculus)
Construct: mSLC6A19-T2A-mCollectrin synthetic construct, doxycycline-inducible in JTREx-CHO cells; with Collectrin
Sequence (Q9D687 whole entry): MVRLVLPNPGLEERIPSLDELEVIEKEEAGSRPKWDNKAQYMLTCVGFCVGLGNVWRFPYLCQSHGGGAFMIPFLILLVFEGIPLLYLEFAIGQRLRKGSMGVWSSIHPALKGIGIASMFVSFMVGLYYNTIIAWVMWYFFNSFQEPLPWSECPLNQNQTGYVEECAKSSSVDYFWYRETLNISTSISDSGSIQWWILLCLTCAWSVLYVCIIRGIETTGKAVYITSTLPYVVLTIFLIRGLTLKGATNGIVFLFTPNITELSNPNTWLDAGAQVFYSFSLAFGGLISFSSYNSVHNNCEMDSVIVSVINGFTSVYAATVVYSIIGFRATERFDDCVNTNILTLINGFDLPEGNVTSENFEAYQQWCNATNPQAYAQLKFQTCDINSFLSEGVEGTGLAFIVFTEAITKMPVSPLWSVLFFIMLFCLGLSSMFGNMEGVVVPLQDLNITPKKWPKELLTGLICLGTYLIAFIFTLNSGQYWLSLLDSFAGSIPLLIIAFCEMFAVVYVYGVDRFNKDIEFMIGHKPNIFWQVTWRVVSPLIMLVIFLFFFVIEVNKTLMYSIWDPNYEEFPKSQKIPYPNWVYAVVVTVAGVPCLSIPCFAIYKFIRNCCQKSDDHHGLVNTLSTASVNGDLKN
Sequence (Q9ESG4 15-222 partner): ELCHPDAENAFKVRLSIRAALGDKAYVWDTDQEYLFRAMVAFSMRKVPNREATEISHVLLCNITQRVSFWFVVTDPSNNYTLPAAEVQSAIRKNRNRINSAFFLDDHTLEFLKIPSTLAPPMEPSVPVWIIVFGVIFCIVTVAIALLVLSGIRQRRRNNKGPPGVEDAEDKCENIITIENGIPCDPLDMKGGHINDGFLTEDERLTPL
Assay: inhibition of d5-phenylalanine uptake, LC-MS/MS
assay endpoint: IC50 (µM)
Express your answer in µM, writing the number without its unit.

O=C(/C=C/c1ccc(C(F)(F)F)cc1)NCC(=O)N1CCNC(=O)C1 [compound 3] | 0.295

Input: Given the entry CN(C)C(=O)CNC(=O)/C=C/c1ccc(C(F)(F)F)cc1 [compound 2] , report its measured IC50.
Output: 1.98

* * *

Catalogue of Kd values
Target: hB^0AT1-ACE2 complex (Homo sapiens, UniProt Q695T7)
Construct: wild type; N-terminal FLAG on B0AT1, Strep-tag after ACE2 signal peptide; FreeStyle 293-F; with Angiotensin-converting enzyme 2
Sequence (Q695T7 whole entry): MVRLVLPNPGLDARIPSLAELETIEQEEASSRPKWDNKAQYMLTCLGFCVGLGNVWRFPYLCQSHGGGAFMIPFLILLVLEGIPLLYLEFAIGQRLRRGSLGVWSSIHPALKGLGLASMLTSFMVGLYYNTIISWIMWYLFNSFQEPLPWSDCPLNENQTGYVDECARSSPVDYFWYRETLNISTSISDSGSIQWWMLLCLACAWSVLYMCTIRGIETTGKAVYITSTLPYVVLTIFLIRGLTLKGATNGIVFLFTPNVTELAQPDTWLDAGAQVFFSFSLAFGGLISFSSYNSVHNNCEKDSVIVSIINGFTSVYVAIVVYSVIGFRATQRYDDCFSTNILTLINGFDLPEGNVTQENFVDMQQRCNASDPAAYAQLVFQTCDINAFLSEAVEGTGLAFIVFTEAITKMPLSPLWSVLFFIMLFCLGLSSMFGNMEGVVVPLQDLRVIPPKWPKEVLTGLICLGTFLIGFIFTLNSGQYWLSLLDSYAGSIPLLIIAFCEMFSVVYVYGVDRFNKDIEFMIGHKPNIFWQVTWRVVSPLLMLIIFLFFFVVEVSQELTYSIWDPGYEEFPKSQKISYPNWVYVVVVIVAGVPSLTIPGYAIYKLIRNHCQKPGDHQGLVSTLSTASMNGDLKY
Sequence (Q9BYF1 18-805 partner): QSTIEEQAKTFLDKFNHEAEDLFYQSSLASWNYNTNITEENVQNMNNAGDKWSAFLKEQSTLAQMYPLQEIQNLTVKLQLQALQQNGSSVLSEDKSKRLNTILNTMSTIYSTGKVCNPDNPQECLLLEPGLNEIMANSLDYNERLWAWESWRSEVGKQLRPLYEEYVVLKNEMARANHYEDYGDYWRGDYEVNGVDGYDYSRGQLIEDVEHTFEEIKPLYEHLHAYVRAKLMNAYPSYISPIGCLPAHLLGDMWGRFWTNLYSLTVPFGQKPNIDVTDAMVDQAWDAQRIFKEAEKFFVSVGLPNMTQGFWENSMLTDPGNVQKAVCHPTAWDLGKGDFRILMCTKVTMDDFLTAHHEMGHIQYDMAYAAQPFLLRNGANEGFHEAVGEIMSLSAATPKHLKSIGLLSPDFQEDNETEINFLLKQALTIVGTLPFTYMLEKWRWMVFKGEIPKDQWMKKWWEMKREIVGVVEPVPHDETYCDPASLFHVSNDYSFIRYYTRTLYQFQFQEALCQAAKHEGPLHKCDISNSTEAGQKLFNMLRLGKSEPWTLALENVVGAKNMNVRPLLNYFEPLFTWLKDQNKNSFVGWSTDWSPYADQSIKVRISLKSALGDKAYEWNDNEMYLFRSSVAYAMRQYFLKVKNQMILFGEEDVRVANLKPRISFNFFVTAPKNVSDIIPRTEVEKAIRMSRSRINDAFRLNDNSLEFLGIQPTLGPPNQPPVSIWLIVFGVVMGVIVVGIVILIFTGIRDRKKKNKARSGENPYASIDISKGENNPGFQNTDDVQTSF
Assay: binding to crude membranes, filtration and LC-MS/MS
Express your answer in nM, writing the number without its unit.

Below are worked cases with known answers.
CCNC(=O)/C=C/c1cccc(Br)c1 [compound 1, Cinromide] | 472
CN(C)C(=O)CNC(=O)/C=C/c1ccc(C(F)(F)F)cc1 [compound 2] | 140

Pending compound:
Input: Given the entry O=C(/C=C/c1ccc(C(F)(F)F)cc1)NCC(=O)N1CCNC(=O)C1 [compound 3] , report its measured Kd.
Output: 47
